Cited source: PubChem BioAssay (NCI)

Test system: NCI-H460 lung
Test: NCI-60 one-dose screen, 48 h (100 = growth as untreated, 0 = no growth, -100 = all killed)
Settings: 10 µM unless noted
The panel holds about 83,000 compounds, 20% with a hit somewhere; the sample as a whole holds those more often. The source made the active and inactive calls. The calls were made as follows: active = growth percent below 10; inactive = the rest.
Would you kindly list growth for each of these compounds?

List the reported growth of each compound below.
1. N#C/C(=C\c1ccc(N2CCCCC2)cc1)C(=O)Nc1sc2c(c1C#N)CCC2
2. COc1ccc2c(C3=C(c4c[nH]c5ccccc45)C(=O)N(O)C3=O)coc2c1
3. CCNC(=NCCCN(C)C)N/C(N)=N/c1nc2ccccc2s1

1. 74.8% (inactive)
2. 90.3% (inactive)
3. 104% (inactive)

List the reported growth of each compound below.
1. O=C(CCCCCCN1CC(=O)N2[C@@H](c3ccc(Cl)c(F)c3)c3[nH]c4ccccc4c3C[C@H]2C1=O)NO
2. CN1CCN(c2ccc3c(c2)nc(NNC(=O)c2ccncn2)c2cccn23)CC1
3. COc1cc2oc(-c3cccc(NC(=O)c4cc(NC(=O)[C@H](C)NC(=O)OC(C)(C)C)ccc4C)c3)cc(=O)c2c(OC)c1OC
4. CC(=O)NC(C)(C)C(=O)N[C@@H](C)C(=O)NC(C)(C)C(=O)N[C@@H](C)C(=O)NC(C)(C)C(=O)N[C@@H](C)C(=O)N[C@@H](CCC(N)=O)C(=O)NC(C)(C)C(=O)N[C@H](C(=O)NC(C)(C)C(=O)NCC(=O)N[C@@H](CC(C)C)C(=O)NC(C)(C)C(=O)N1CCC[C@H]1C(=O)N[C@H](C(=O)NC(C)(C)C(=O)NC(C)(C)C(=O)N[C@@H](CCC(N)=O)C(=O)N[C@@H](CCC(N)=O)C(=O)N[C@H](CO)CC1CCCCC1)C(C)C)C(C)C

79.5% (inactive)
27.4% (inactive)
61.5% (inactive)
45.1% [5 µM] (inactive)

List the reported growth of each compound below.
1. CCCCCCNC(=O)Oc1ccc(/C(=C(\C)c2ccc(OC)cc2)c2ccc(OCCN(C)C)cc2)cc1
2. COc1ccc(N2CCN(C(=O)CSc3ccc(-c4nc5cc(C)c(C)cc5[nH]4)cn3)CC2)cc1
3. CCOC(=O)/C=c1\sc2n(c1=O)C1C(NN=2)N(CC)C(=O)N1CC (stereo not drawn)
4. COc1ccc(Cn2cc3c(c2-c2ccccc2)CCCc2cnoc2-3)cc1

1: 67.6% (inactive); 2: 89.9% (inactive); 3: 37.8% (inactive); 4: 26.9% (inactive)

List the reported growth of each compound below.
1. Oc1ccc(CSc2nnc(-c3ccccc3)n2-c2ccccc2)c2cccnc12
2. CC1OC(O[C@@H]2[C@H](O)C(CO)OC(O[C@H]3COC(O[C@H]4CC[C@]5(C)[C@H]6CC[C@]78OC[C@@]9(CCC(C)(C)C[C@H]97)[C@H](O)C[C@@]8(C)[C@]6(C)CC[C@H]5C4(C)C)[C@@H](OC4OC(CO)[C@@H](O)[C@@H](O)[C@@H]4O)[C@@H]3O)[C@H]2OC2OC[C@@H](O)[C@@H](O)[C@@H]2O)[C@@H](O)[C@@H](O)[C@H]1O (stereo partly drawn)

["1.36% (active)", "-65.2% (active)"]
